biological target: Replicase polyprotein 1ab (Severe acute respiratory syndrome coronavirus 2, UniProt P0DTD1)
pIC50: −log10 of the molar value. Starred links: 1 amine or outer side, 2 acyl side, 3 side chain; linkers in the order of their positions; H or OH if unused. Positions of bridges follow the written chain, without caps; N, C: chain ends. Non-standard residues stand in square brackets, D forms with d. Residues, ends and D or L forms follow the SMILES beside them. X2 = O=C(/C=C/c1csc([C@H](Cc2ccc(O)cc2)N[*:1])n1)[*:2]; X1 = CC[C@H](C)[C@H](N[*:1])C(=O)C(=O)[*:2]; Cya = N[C@@H](CS(=O)(=O)O)C(=O)O; Nva = CCC[C@H](N)C(=O)O; Dap = NC[C@H](N)C(=O)O
// values below are reported pIC50

[
  {
    "MOLECULE": "CC[C@H](C)[C@@H]1NC(=O)[C@H](CC(C)C)NC(=O)[C@@H](NC(=O)[C@H](C)N)CNC(=O)[C@H](CS(=O)(=O)O)NC(=O)/C=C/c2csc(n2)[C@H](Cc2ccc(O)cc2)NC(=O)C1=O (H-A[Dap]L[X1][X2][Cya]; lactam 2-C)",
    "pIC50": 5.21
  },
  {
    "MOLECULE": "CC(C)C[C@@H]1NC(=O)[C@H](NC(=O)N[C@@H](Cc2ccccc2)C(=O)O)CCCCNC(=O)[C@H](Cc2ccccc2)NC(=O)[C@H](Cc2c[nH]c3cc(Cl)c(O)cc23)N(C)C(=O)[C@H](CC(C)C)NC1=O",
    "pIC50": 5.96
  },
  {
    "MOLECULE": "CC(C)C[C@@H]1NC(=O)[C@H](NC(=O)N[C@@H](Cc2ccccc2)C(=O)O)CCCCNC(=O)[C@H](Cc2ccccc2)NC(=O)[C@H](Cc2c[nH]c3cc(Cl)ccc23)N(C)C(=O)[C@H](CC(C)C)NC1=O",
    "pIC50": 5.34
  },
  {
    "MOLECULE": "CCC[C@@H]1NC(=O)[C@@H](NC(=O)[C@H](C)N)CNC(=O)[C@H](CS(=O)(=O)O)NC(=O)/C=C/c2csc(n2)[C@H](Cc2ccc(O)cc2)NC(=O)C(=O)[C@H]([C@@H](C)CC)NC1=O (H-A[Dap][Nva][X1][X2][Cya]; lactam 2-C)",
    "pIC50": 4.79
  }
]
